Just for reference, patent US20100267755A1 is where these values come from.

Target protein (sequence): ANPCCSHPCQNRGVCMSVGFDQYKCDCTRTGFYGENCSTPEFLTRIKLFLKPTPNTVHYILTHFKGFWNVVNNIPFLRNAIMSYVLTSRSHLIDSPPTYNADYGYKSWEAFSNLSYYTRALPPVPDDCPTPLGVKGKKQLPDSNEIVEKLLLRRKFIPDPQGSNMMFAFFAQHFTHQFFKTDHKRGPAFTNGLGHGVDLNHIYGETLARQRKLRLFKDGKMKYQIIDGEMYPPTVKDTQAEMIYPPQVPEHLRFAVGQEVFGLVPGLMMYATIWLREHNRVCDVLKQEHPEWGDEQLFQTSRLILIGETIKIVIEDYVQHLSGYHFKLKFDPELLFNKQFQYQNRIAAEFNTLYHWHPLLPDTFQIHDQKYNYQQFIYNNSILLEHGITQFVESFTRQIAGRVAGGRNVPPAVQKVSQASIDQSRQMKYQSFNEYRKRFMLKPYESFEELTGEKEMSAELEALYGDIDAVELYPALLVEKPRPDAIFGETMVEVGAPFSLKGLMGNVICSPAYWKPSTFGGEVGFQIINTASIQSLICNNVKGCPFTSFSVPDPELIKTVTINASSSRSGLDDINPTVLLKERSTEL
Attribute: pIC50
Schema: pIC50 number; meaning minus log10 of the concentration expressed in molar units.

# annotated cases, reported pIC50 shown
>>> print(df.to_string())
                                 smiles_str  recorded_result
0  Cc1c(-c2ccc(S(C)(=O)=O)cc2)nc(NCc2ccccc2)nc1C(F)(F)F             5.89
1  Cc1c(-c2ccc(S(C)(=O)=O)cc2)nc(NCCc2ccccn2)nc1C(F)(F)F             4.15
2  Cc1c(-c2ccc(S(C)(=O)=O)cc2)nc(NCc2cccs2)nc1C(F)(F)F             6.25

Problem: For the compound `Cc1c(-c2ccc(S(C)(=O)=O)cc2)nc(NC2CCCCC2)nc1C(F)(F)F` , what pIC50 is on record?
Solution: 5.64
